Molecular target: T1, serum resistance-associated protein (SRA) from Trypanosoma brucei rhodesiense, recombinant SRA (SEQ ID NO: … (Trypanosoma brucei rhodesiense, UniProt O96637 31-274))
T1 construct: also called SRA protein
T1 sequence: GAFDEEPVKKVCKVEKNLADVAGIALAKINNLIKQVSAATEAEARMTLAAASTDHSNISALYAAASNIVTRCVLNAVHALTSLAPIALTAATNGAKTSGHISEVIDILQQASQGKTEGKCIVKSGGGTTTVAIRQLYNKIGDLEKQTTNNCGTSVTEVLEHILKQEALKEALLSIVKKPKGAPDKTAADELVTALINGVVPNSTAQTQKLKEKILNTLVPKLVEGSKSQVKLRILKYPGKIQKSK
Assay: SPR, mAb captured, 25C, pH 7.4
pKd: −log10 of the molar value.
Kindly supply the reported pKd values for the records listed here.

State the recorded pKd for this entry: H2aM10201N (antibody, V domains shown, Chimeric antibody, human variable domains and mouse constant domains (mouse Fc, prefix H2aM); also called H2M10201N) VH: QVQLLESGGGVVQPGKSLRLSCVASGSIFSIYGMNWVRQAPGKGLEWVASVSSDGSAKFYADSVKGRFTISRDNSNDTLFLQMTSLRAEDTAVYYCAKTLWNYLFDSWGQGTLVTVSS VL: ENVLTQSPDTLSLSPGERATLSCRASQSITSNYLAWYQQKPGQTPRLLISFTSRRATGIPDRFSGSGSGTVFTLTISRLEPEDFAVYYCQQYGTSLTFGGGAKVEIR
9.61

Moving on to H2aM10204N (antibody, V domains shown, Chimeric antibody, human variable domains and mouse constant domains (mouse Fc, prefix H2aM); also called H2M10204N) VH: QVHLVQSGAEVKKPGSSVKVSCKASGGTFSNYAISWVRQAPGQGLEWMGGIIPFSGSATYAQNFQGRITITTDESTRTAYMELNGLRSEDTAVYYCARWFSGYGGDFDYWGQGTLVTVSS VL: AIQMTQSPSSLSASVGDRVTITCRASQDIKNDLGWYQQKPGKAPKLLIYAASTLQSGVPSRFSGSGSGTHFTLTLSSLQPEDFATYFCLQDYTFPRTFGQGTKVEIK
≥ 10.05

Moving on to H1H10027P (antibody, V domains shown, Fully human antibody with human IgG1 Fc (prefix H1H)) VH: EVQLVESGGALVQPGRSLTLSCAASGFTFDDYTMHWVRQTPGKGLEWVSGILWNSDNLVYADSVKGRFTISRDNAKNSLYLQMNSLRVEDTALYYCTKEIDYLTLGGNAFDVWGQGTMVTVSS VL: DIQMTQSPSTLSASVGDRITITCRASQNINYWLAWYQQKPGKAPKLLIYKASSLAGGVPSRFSGSGSGTDFTLTINSLQPDDFATYYCQKYNTYSLNFGGGTKVEIK
≥ 10.42
